system: pc9 cells; assay: MTT cell viability, pc9; type: cell-based; conditions: Homo sapiens, PC-9, 72 h
ENDPOINT LABEL: IC50 (µM)

[
  {
    "SMILES ENTRY": "COc1ccccc1NC(=O)NC(=O)CSC(=S)N1CCCC1",
    "TARGET ENTITY": "pc9 cells",
    "CENSOR SYMBOL": ">",
    "NUMERIC VALUE": 50
  },
  {
    "SMILES ENTRY": "C#CCSc1nc(NNC(N)=S)c(C#N)c(-c2ccc3oc(=O)ccc3c2)n1",
    "TARGET ENTITY": "pc9 cells",
    "CENSOR SYMBOL": "=",
    "NUMERIC VALUE": 9.53
  }
]
